This collection of values is drawn from patent US20260226048A1.

Property: Excess HSA (sum excess HSA score, combination with venetoclax); scope: individual molecules
test system: MOLM14-D835Y cells (FLT3-ITD (D835Y) mutant); test: Combination drug screening with venetoclax in MOLM14 (D835Y) cells (Cell Titre Glo, 10 × 10); format: cell-based; set-up: scale not given here; conditions: 10 × 10 dataset, Cell Titre Glo at 48 hours, optimal of 4 dose combinations, negative = synergy

Request: Requested read-out: Excess HSA (sum excess HSA score, combination with venetoclax). Entry: COc1cnc(N[C@H]2CNC[C@@H]2F)nc1-c1cnc2cc(OC)c(C3CC3)nn12 [Compound 104a]
Result: −2179

Request: Requested read-out: Excess HSA (sum excess HSA score, combination with venetoclax). Entry: COc1cc2ncc(-c3nc(N[C@H]4CNCC[C@@H]4F)ncc3F)n2nc1C(C)(C)O [Compound 45a]
Result: −2340

Request: Requested read-out: Excess HSA (sum excess HSA score, combination with venetoclax). Entry: COc1cc2ncc(-c3nc(N[C@H]4CNCC[C@@H]4F)ncc3F)n2nc1C1CC2(CCC2)C1 [Compound 60a]
Result: −1497.3117

Request: Requested read-out: Excess HSA (sum excess HSA score, combination with venetoclax). Entry: CC(C)(O)c1ccc2ncc(-c3nc(N[C@H]4CNCC[C@@H]4F)ncc3F)n2c1 [Compound 46a]
Result: −1279

Request: Requested read-out: Excess HSA (sum excess HSA score, combination with venetoclax). Entry: "COc1cc2ncc(-c3nc(N[C@H]4CNCC[C@@H]4F)ncc3F)n2nc1C1CC1"
Result: −1505

----------
target: IRAK1 (Homo sapiens); assay: RBC HotSpot Kinase Assay, IRAK1; settings: isolated kinase enzyme, 33P-ATP, P81 filter-binding
Sequence (P51617 whole entry): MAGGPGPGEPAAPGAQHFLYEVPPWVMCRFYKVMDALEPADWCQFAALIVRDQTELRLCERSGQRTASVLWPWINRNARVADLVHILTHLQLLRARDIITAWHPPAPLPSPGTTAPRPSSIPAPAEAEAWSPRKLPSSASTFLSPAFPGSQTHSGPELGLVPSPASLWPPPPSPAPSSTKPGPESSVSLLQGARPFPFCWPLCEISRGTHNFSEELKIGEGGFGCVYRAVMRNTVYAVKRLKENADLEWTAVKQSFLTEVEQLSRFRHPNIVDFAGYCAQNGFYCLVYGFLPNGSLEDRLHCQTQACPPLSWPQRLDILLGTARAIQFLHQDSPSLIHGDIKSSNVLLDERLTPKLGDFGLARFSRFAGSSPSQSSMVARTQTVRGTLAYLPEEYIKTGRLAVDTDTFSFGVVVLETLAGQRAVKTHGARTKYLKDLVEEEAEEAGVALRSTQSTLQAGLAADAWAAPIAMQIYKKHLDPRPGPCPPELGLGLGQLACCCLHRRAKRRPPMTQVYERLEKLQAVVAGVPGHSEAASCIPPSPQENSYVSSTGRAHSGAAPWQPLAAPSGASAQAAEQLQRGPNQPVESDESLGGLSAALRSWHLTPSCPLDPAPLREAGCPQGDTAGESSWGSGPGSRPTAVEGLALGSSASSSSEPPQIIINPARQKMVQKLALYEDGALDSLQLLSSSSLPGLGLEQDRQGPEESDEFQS
Property: IC50; scope: individual molecules
Please reply with the bare figure in µM and do not write the unit itself.

Record excerpt, results attached:
- Molecule: "COc1cc2ncc(-c3nc(N[C@@H]4CCCNC4)ncc3Cl)n2nc1C1CC1 [Compound 102a]"
  Readout type: "IC50"
  Readout unit: "µM"
  Meas value: 0.081
- Molecule: "COc1cc2ncc(-c3ccnc(N[C@H]4CNC[C@@H]4F)n3)n2nc1C1CCCCC1 [Compound 86a]"
  Readout type: "IC50"
  Readout unit: "µM"
  Meas value: 0.016
- Molecule: "COc1cc2ncc(-c3nc(N[C@H]4CNC[C@@H]4F)ncc3F)n2nc1C1COC1 [Compound 93a]"
  Readout type: "IC50"
  Readout unit: "µM"
  Meas value: 0.005
- Molecule: "COc1cc2ncc(-c3ccnc(N[C@H]4CNCC[C@@H]4F)n3)n2nc1C1CC2(CCC2)C1 [Compound 74a]"
  Readout type: "IC50"
  Readout unit: "µM"
  Meas value: 0.091
- Molecule: "CC(C)(O)c1cn2c(-c3nc(N[C@H]4CNC[C@@H]4F)ncc3F)cnc2cn1 [Compound 98a]"
  Readout type: "IC50"
  Readout unit: "µM"
  Meas value: 0.046
- Molecule: "CC(O)(c1cn2c(-c3nc(N[C@H]4CNCC[C@@H]4F)ncc3F)cnc2cn1)C(F)(F)F (single isomer, unassigned) [Compound 134a]"
  Readout type: "IC50"
  Readout unit: "µM"
  Meas value: 0.002

Request: Requested read-out: IC50. Entry: FC(F)COc1cc2ncc(-c3cncc(N[C@H]4CNC[C@@H]4F)n3)n2nc1C1CC1 [Compound 8a]
Result: 0.034

Request: Requested read-out: IC50. Entry: CC(O)(c1ccc2ncc(-c3ccnc(N[C@@H]4CCCNC4)n3)n2c1)C(F)(F)F (single isomer, unassigned) [Compound 23a]
Result: 0.003
